Quick list: Degree of conversion (%) per entry.
system: ALK5 (Alk5p, cytochrome P450 CYP52); assay: In vitro enzymatic assay: conversion of radiolabeled fatty acids by microsomes of S. cerevisiae WAT11 expressing ALK5 (TLC); details: gene ALK5, substrate 100 μM, yeast microsomes, NADPH, ND: not detectable
Outcome measure: Degree of conversion (%)

[
  {
    "Compound": "CCCCC/C=C\\C/C=C\\CCCCCCCC(=O)O [C18:2, linoleic acid]",
    "Outcome measure": "Degree of conversion (%)",
    "Experimental result": 11
  },
  {
    "Compound": "CCCCCCCCCCCCCCCCCC(=O)O [C18:0, stearic acid]",
    "Outcome measure": "Degree of conversion (%)",
    "Experimental result": 2
  },
  {
    "Compound": "CCCCCCCCCCCCCC(=O)O [C14:0, myristic acid]",
    "Outcome measure": "Degree of conversion (%)",
    "Experimental result": 27
  },
  {
    "Compound": "CCCCCCCC/C=C\\CCCCCCCC(=O)O [C18:1, oleic acid]",
    "Outcome measure": "Degree of conversion (%)",
    "Experimental result": 13
  },
  {
    "Compound": "CCCCCCCCCCCCCCCC(=O)O [C16:0, palmitic acid]",
    "Outcome measure": "Degree of conversion (%)",
    "Experimental result": 12
  },
  {
    "Compound": "CCCCCCCCCCCC(=O)O [C12:0, lauric acid]",
    "Outcome measure": "Degree of conversion (%)",
    "Experimental result": 24
  }
]
